These measurements were taken from ChEMBL document CHEMBL2218924.

# Test target: Serine/threonine-protein kinase PAK 5 (Homo sapiens) (UniProt Q9P286)
# Sequence (Q9P286 whole entry, looked up): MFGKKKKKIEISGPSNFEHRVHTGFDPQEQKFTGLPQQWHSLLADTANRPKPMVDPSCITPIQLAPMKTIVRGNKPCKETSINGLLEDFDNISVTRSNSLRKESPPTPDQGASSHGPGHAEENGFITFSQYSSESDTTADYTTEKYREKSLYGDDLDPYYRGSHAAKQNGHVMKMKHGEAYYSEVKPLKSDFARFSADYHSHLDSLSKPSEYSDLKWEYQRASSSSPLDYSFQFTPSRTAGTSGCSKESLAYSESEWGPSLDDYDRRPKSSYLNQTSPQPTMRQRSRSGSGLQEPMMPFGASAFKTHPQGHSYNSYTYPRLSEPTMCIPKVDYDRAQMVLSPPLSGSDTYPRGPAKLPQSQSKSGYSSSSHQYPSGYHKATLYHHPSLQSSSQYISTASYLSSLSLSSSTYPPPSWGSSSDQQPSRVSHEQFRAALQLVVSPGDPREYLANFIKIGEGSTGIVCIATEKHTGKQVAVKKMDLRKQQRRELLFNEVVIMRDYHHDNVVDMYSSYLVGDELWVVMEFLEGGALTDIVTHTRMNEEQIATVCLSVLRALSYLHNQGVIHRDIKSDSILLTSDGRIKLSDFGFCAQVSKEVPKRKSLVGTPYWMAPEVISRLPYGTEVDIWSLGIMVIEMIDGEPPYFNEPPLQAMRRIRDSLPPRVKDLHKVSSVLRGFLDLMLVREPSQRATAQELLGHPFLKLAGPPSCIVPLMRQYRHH
# Assay setup: at 10 µM
Endpoint label: residual activity (%)
// return numeric value only (unit: %, not printed)

See these solved cases before continuing.
response.value for `O=C(Nc1ccc(Cl)cc1)c1ccccc1NCc1ccncc1` (field: residual activity) = 128

response.value for `Nc1ncnc2[nH]nc(Nc3ccc(F)cc3)c12` (field: residual activity) = 97

Let us move to another entry and its residual activity.
response.value for `Nc1n[nH]c2nc3ccccc3nc12` (field: residual activity) = 70

====

Reported residual activity values are given for each entry in this list.
# Test target: Protein kinase C iota type (Homo sapiens) (UniProt P41743)
# Sequence (P41743 whole entry): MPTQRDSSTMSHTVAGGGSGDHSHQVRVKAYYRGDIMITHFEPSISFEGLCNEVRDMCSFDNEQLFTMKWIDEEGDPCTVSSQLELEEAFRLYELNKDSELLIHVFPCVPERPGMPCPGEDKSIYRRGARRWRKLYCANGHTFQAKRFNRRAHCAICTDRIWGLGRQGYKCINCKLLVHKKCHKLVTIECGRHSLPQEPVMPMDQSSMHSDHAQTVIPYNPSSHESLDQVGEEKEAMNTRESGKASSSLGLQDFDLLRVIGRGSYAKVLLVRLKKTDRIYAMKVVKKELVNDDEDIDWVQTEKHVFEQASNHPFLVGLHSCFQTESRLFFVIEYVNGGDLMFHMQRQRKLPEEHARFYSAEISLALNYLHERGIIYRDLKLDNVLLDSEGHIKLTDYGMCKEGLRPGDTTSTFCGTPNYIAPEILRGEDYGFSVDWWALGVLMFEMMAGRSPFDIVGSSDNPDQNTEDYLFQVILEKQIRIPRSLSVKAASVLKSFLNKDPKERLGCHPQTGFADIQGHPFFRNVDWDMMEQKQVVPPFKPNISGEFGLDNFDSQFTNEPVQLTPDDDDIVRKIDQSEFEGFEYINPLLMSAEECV
# Assay setup: at 10 µM
// return numeric value only (unit: %, not printed)

See these solved cases before continuing.
response.value for `O=C(c1ccccc1)c1ccc(N2CCOCC2)cc1O` (field: residual activity) = 73

response.value for `CN(C)S(=O)(=O)c1ccc2c(c1)/C(=C/c1cc3c([nH]1)CCCC3)C(=O)N2` (field: residual activity) = 114

response.value for `O=C1NC(=O)c2c1c1c3ccccc3[nH]c1n1cncc21` (field: residual activity) = 52

response.value for `Nc1ncnc2c1cnn2-c1ccccc1` (field: residual activity) = 98

Let us move to another entry and its residual activity.
response.value for `CC(C)[C@H](CO)Nc1nc(Nc2cc(N)cc(Cl)c2)c2ncn(C(C)C)c2n1` (field: residual activity) = 89

====

# Test target: Serine/threonine-protein kinase 24 (Homo sapiens) (UniProt Q9Y6E0)
# Sequence (Q9Y6E0 whole entry, looked up): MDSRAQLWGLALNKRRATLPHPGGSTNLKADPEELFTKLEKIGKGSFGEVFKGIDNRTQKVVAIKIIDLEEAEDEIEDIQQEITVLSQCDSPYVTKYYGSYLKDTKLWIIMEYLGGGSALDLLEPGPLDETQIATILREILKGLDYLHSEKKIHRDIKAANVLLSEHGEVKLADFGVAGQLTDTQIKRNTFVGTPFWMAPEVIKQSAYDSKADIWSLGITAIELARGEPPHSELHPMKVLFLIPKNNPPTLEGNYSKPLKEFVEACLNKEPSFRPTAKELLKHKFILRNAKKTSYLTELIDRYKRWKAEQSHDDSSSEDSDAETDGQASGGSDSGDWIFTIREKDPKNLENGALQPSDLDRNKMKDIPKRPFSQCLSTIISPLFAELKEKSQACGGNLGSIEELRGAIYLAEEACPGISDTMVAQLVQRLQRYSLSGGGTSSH
# Assay setup: at 1 µM
Reported residual activity values are given for each entry in this list.
// return numeric value only (unit: %, not printed)

response.value for `CC(C)[C@H](CO)Nc1nc(Nc2cc(N)cc(Cl)c2)c2ncn(C(C)C)c2n1` (field: residual activity) = 78

New cases:
response.value for `CCCC(=O)Oc1ccc2[nH]c(C(=O)c3cc4ccccc4[nH]3)cc2c1` (field: residual activity) = 67

response.value for `COc1cc2nccc(Oc3ccc(NC(=O)Nc4cc(C)on4)c(Cl)c3)c2cc1OC` (field: residual activity) = 118

response.value for `CC(C)N(CCC(=O)c1ccc2ccccc2c1)Cc1ccccc1` (field: residual activity) = 62

response.value for `c1ccc(-c2cnc(Nc3ccc(OCCN4CCCC4)cc3)s2)cc1` (field: residual activity) = 67

response.value for `N#C/C(=C1/Nc2ccccc2S1)c1ccnc(NCCc2cccnc2)n1` (field: residual activity) = 89

response.value for `O=C(c1cc2cc(O)ccc2[nH]1)c1cc2cc(O)ccc2[nH]1` (field: residual activity) = 48

====

Reported residual activity values are given for each entry in this list.
# Test target: Ribosomal protein S6 kinase alpha-2 (Homo sapiens) (UniProt Q15349)
# Sequence (Q15349 whole entry): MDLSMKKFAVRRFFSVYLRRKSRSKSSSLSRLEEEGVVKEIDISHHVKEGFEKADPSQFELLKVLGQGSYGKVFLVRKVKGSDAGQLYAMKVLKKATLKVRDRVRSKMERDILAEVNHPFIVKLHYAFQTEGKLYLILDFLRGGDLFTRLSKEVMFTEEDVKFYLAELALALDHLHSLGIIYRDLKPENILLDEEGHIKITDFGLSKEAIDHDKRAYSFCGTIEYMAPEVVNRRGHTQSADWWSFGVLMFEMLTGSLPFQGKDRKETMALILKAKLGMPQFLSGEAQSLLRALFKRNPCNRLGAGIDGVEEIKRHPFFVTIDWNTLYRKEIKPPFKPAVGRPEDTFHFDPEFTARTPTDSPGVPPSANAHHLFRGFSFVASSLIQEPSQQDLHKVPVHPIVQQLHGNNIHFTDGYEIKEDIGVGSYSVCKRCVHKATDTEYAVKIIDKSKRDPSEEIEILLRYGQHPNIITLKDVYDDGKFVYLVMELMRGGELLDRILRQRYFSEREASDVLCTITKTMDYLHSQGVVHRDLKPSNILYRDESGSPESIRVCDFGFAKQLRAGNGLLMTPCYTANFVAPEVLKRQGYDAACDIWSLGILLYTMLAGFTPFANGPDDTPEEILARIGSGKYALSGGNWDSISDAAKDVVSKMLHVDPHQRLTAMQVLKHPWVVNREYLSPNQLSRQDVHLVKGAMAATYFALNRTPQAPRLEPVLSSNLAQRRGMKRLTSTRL
# Assay setup: at 10 µM
// return numeric value only (unit: %, not printed)

See these solved cases before continuing.
response.value for CSc1nc(-c2ccc(F)cc2)c(-c2ccnc(NC(C)c3ccccc3)c2)[nH]1 (stereo not drawn) (field: residual activity) = 42

response.value for `CC(C)(C)n1nc(Cc2cccc3ccccc23)c2c(N)ncnc21` (field: residual activity) = 85

response.value for `CN([C@@H](Cc1ccc(OS(=O)(=O)c2cccc3cnccc23)cc1)C(=O)N1CCN(c2ccccc2)CC1)S(=O)(=O)c1cccc2cnccc12` (field: residual activity) = 99

response.value for `CCCCc1c(-c2ccc(OC)cc2)[nH]c2nccnc12` (field: residual activity) = 70

response.value for `Nc1ncnc2c1c(-c1ccc(Oc3ccccc3)cc1)cn2C1CCCC1` (field: residual activity) = 69

New cases:
response.value for `Nc1ncnc2c1cnn2-c1ccccc1` (field: residual activity) = 84

response.value for `Cn1sc(=O)n(Cc2ccccc2)c1=O` (field: residual activity) = 97

response.value for `CC(C)(C)c1nc2c3ccc(F)cc3c3c(=O)[nH]ccc3c2[nH]1` (field: residual activity) = 7

response.value for `CN(C)S(=O)(=O)c1ccc2c(c1)/C(=C/c1cc3c([nH]1)CCCC3)C(=O)N2` (field: residual activity) = 17

response.value for `NC(=O)Nc1sc(-c2ccc(F)cc2)cc1C(N)=O` (field: residual activity) = 7

response.value for `O=C1NC(=O)C(c2c[nH]c3ccccc23)=C1c1c[nH]c2ccccc12` (field: residual activity) = 0

response.value for `COc1cc2c(cc1OC)-c1n[nH]c(Nc3cccc(F)c3)c1C2` (field: residual activity) = 63

response.value for `O=C1NC(=O)C(c2cn(CCCn3ccnc3)c3ccccc23)=C1Nc1ccccc1` (field: residual activity) = -1
